Where do these numbers come from? They come from the supplement of paper PMC10567573.

B1: PKD2L1 (parent)
chain: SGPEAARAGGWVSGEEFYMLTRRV

Variants of: B1
Assay: protein stability index of a GFP-peptide fusion (GPS, HEK-293T) (PSI 1-6); higher = more stable;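 note: lentivirally expressed fusions sorted by FACS into six bins by GFP to DsRed ratio, PSI derived from sequencing read proportions per bin multiplied by bin number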
Conditions: c terminus: a fixed tail appended
recorded_metric: protein stability index

// known answers, use as guide
variant_key | recorded_metric | measurement
E4Q | protein stability index | 1.57
G10S | protein stability index | 2.32
M19Y | protein stability index | 2.39
R7I | protein stability index | 2.11

Please fill in: protein stability index reported for P3I = 2.16

Please fill in: protein stability index reported for G2N = 2.93

Please fill in: protein stability index reported for A5K = 1.96

Please fill in: protein stability index reported for G9Q = 2.51

Please fill in: protein stability index reported for W11P = 3.19

Please fill in: protein stability index reported for E16W = 2.42

Please fill in: protein stability index reported for F17L = 2.85

Please fill in: protein stability index reported for L20E = 3.64

Please fill in: protein stability index reported for Y18D = 3.94

Please fill in: protein stability index reported for V24K = 3.63

Please fill in: protein stability index reported for R23G = 2.93

Please fill in: protein stability index reported for E4M = 2.35
